biological target: Proto-oncogene tyrosine-protein kinase ROS (Homo sapiens); assay: Inhibition of ROS1 at 1 uM
propertyName: inhibition (%)
Note: unit % is implicit; provide only the numeric part.

# annotated cases, reported inhibition shown
smilesEntry	reading
CC(=O)N1CCN(c2cc(-c3cnc4c(c3)N(Cc3cc(Cl)ccc3C(F)(F)F)CCN4)ccn2)CC1	79
O=C(c1ccc(-c2cnc3c(c2)N(Cc2cc(Cl)ccc2C(F)(F)F)CCN3)cc1)N1CCC(N2CCCC2)CC1	80.7
CN1CCN(c2ccc(-c3cnc4c(c3)N(Cc3cc(F)ccc3F)CCN4)cn2)CC1	67.5
CN1CCN(c2ccc(-c3cnc4c(c3)N(Cc3c(F)ccc(F)c3Cl)CCN4)cn2)CC1	73
FC(F)(F)c1ccc(Cl)cc1CN1CCNc2ncc(-c3ccnc(N4CCNCC4)c3)cc21	92
O=C(O)c1ccc(-c2cnc3c(c2)N(Cc2cc(Cl)ccc2C(F)(F)F)CCN3)cc1	66.7

Query :: Returns the measured inhibition for the input compound. Input: `COC1CCN(C(=O)c2ccc(-c3cnc4c(c3)N(Cc3cc(Cl)ccc3C(F)(F)F)CCN4)cc2)CC1`
Result :: 78.2

Query :: Same for `CN1CCN(c2ccc(-c3cnc4c(c3)N(Cc3cc(Cl)ccc3C(F)(F)F)CCN4)cn2)CC1`
Result :: 72
